Tested on: B16 melanoma cells
Experiment: B16 melanoma test (test 1)
Format: cell-based
Details: Mus musculus, 50 /ug/ml, aqueous suspension, incubation 20 hours, cells counted 48 hours after start
Known inhibition at 50 µg/mL of a selection of compounds
recorded endpoint: inhibition at 50 µg/mL

>>> result_value("Nc1ccccc1C(=O)NC(=O)Nc1ccc(Cl)cc1")
"1 to 20%"
>>> result_value("O=C(NC(=O)c1c(F)c(F)c(F)c(F)c1F)Nc1ccc(Cl)cc1")
"61 to 80%"
>>> result_value("O=C(NC(=O)Nc1ccc(Cl)cc1)NC(=O)c1c(O)cccc1Cl")
"61 to 80%"
>>> result_value("O=C(NC(=O)c1c(O)cccc1Cl)Nc1c(F)c(F)c(F)c(F)c1F")
"61 to 80%"
>>> result_value("CN(C)c1cccc(F)c1C(=O)NC(=O)Nc1c(F)c(F)c(F)c(F)c1F")
"61 to 80%"

Data origin: patent EP0193249A2
